The entries below are paired with their reported EC90.
target: Nonstructural protein 5A (Hepatitis C virus) (UniProt Q5L478); assay: Inhibition of NS5A in HCV genotype 1b infected in HuH7 replicon cells assessed as decrease in viral replication after 3 days by RT-PCR method; assay type: cell-based; settings: Hepatitis C virus subtype 1b
Sequence (Q5L478 as listed by the source): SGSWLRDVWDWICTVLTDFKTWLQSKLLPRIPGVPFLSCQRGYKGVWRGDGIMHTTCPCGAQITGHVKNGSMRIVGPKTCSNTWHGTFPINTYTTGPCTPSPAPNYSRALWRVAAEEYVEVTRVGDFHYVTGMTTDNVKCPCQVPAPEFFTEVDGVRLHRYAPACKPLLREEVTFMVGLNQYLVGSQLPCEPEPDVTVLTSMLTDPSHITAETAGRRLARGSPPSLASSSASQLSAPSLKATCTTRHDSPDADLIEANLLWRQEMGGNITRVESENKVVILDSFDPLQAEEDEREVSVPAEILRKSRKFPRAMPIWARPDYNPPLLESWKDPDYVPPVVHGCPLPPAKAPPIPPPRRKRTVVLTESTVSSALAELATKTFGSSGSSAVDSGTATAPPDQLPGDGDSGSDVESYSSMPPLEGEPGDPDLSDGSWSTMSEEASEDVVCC
Field format: number, assumed pM, no unit text.

For orientation, consider the following solved cases.
INSERT INTO measurements (molecule, metric, result_number) VALUES
  ('COC(=O)N[C@H](C(=O)N1CCC[C@H]1c1ncc(-c2cc(F)c3c(c2)O[C@@H](c2ccc(C4CC4)s2)n2c-3cc3cc(-c4cnc([C@@H]5CCCN5C(=O)[C@@H](NC(=O)OC)C5CC6CCC(C5)O6)[nH]4)ccc32)[nH]1)C(C)C (stereo partly drawn)', 'EC90', 4),
  ('CCc1ccc([C@@H]2Oc3cc(-c4cnc([C@@H]5CCCN5C(=O)[C@@H](NC(=O)OC)C(C)C)[nH]4)cc(F)c3-c3cc4cc(-c5cnc([C@@H]6CCCN6C(=O)[C@@H](NC(=O)OC)[C@@H]6CCOC(C)(C)C6)[nH]5)ccc4n32)s1', 'EC90', 6),
  ('COC(=O)N[C@H](C(=O)N1CCC[C@H]1c1ncc(-c2cc(F)c3c(c2)O[C@@H](c2cc4c(s2)CCC4)n2c-3cc3cc(-c4cnc([C@@H]5CCCN5C(=O)[C@@H](NC(=O)OC)C5CCOCC5)[nH]4)ccc32)[nH]1)C(C)C', 'EC90', 5);

EC90 for "COC(=O)N[C@H](C(=O)N1CCC[C@H]1c1ncc(-c2ccc3c(c2)cc2n3[C@H](c3ccc(C4CC4)s3)Oc3cc(-c4cnc([C@@H]5CCCN5C(=O)[C@@H](NC(=O)OC)[C@@H]5CCOC(C)(C)C5)[nH]4)cc(F)c3-2)[nH]1)C(C)C" ? 5

EC90 for "CCCc1ccc([C@@H]2Oc3cc(-c4cnc([C@@H]5CCCN5C(=O)[C@@H](NC(=O)OC)C(C)C)[nH]4)cc(F)c3-c3cc4cc(-c5cnc([C@@H]6CCCN6C(=O)[C@@H](NC(=O)OC)[C@@H]6CCOC(C)(C)C6)[nH]5)ccc4n32)s1" ? 9

EC90 for "COC(=O)N[C@H](C(=O)N1CCC[C@H]1c1ncc(-c2cc(F)c3c(c2)O[C@@H](c2cc4ccccc4s2)n2c-3cc3cc(-c4cnc([C@@H]5CCCN5C(=O)[C@@H](NC(=O)OC)C5CCOCC5)[nH]4)ccc32)[nH]1)C(C)C" ? 3

EC90 for "COC(=O)N[C@H](C(=O)N1CCC[C@H]1c1ncc(-c2cc(F)c3c(c2)O[C@@H](c2cnc(C4CC4)s2)n2c-3cc3cc(-c4cnc([C@@H]5CCCN5C(=O)[C@@H](NC(=O)OC)[C@@H]5CCOC(C)(C)C5)[nH]4)ccc32)[nH]1)C(C)C" ? 6

EC90 for "COC(=O)N[C@H](C(=O)N1CCC[C@H]1c1ncc(-c2ccc3c(c2)cc2n3[C@H](c3ccc4c(c3)OCCN4C)Oc3cc(-c4cnc([C@@H]5CCCN5C(=O)[C@@H](NC(=O)OC)C5CCOCC5)[nH]4)cc(F)c3-2)[nH]1)C(C)C" ? 7
